Hello, the source for this data is paper PMC12102759, in case you need it.

B1: SH3BP2 peptide 410-425 (SH3 domain-binding protein 2), 16-mer library wild type / TNKS ANK (TNKS 12 ANK repeats, residues 174-649) (parent)
chain 1: LPHLQRSPPDGQSFRS
chain 2: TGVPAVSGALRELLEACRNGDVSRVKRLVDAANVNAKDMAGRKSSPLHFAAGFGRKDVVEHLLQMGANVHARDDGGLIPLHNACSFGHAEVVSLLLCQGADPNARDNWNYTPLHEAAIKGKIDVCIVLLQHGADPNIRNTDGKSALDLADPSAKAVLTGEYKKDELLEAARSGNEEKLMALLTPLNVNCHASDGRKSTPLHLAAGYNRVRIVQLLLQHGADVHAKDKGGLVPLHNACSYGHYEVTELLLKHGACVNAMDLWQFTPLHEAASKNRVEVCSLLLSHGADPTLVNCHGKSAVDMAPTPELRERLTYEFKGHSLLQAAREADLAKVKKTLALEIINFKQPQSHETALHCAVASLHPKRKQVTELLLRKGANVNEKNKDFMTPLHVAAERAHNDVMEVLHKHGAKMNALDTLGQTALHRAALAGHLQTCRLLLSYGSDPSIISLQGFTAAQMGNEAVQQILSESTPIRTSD

- Variants of: B1
- Experiment description: proteomic peptide phage display deep mutational scan (ProP-PD DMS): M13 P8 16-mer library selected against immobilised GST-tagged bait for four days (rounds), NGS of the eluted pools per day and pseudo-replica
- Particulars: with TNKS ANK (TNKS 12 ANK repeats, residues 174-649); bait immobilised on MaxiSorp plates (10 µg), library pre-cleared on GST, 2 h binding at 4 °C, five washes; one round per day, days 1-4; value from days 2 and 3; keep out of graded; scale: average fractional NGS count over selection days 2 and 3
So I've got a bunch of variants here, and I need their screen value values.
Note: the reply should be a number with no unit written.

Q: Requested field: screen value. Item: chain 1 S13R
Result: 3.04e-05

Q: Field entry: chain 1 R6A
Result: 0

Q: Field entry: chain 1 P9M
Result: 0.000123

Q: Field entry: chain 1 F14R
Result: 2.25e-05

Q: Field entry: chain 1 P9V
Result: 0

Q: Field entry: chain 1 S7G
Result: 0

Q: Field entry: chain 1 R6V
Result: 4.06e-05

Q: Field entry: chain 1 D10M
Result: 3.11e-05

Q: Field entry: chain 1 P8G
Result: 8.51e-05

Q: Field entry: chain 1 R6K
Result: 0

Q: Field entry: chain 1 G11A
Result: 0

Q: Field entry: chain 1 D10F
Result: 0

Q: Field entry: chain 1 G11R
Result: 2.25e-05

Q: Field entry: chain 1 H3R
Result: 3.96e-05

Q: Field entry: chain 1 R6E
Result: 0

Q: Field entry: chain 1 P9L
Result: 0

Q: Field entry: chain 1 Q5R
Result: 6.18e-05

Q: Field entry: chain 1 D10S
Result: 7.49e-05

Q: Field entry: chain 1 R15Y
Result: 0.000124

Q: Field entry: chain 1 H3S
Result: 9.56e-05

Q: Field entry: chain 1 P2W
Result: 0

Q: Field entry: chain 1 S13W
Result: 0.000125
